Assay: Leaching test: measurement of a leakage (leaching rate)
Type: biochemical
Conditions: pH 5.0; hydrophobic material alone; 37° C., 90 min; mean of three ± SD
reportedEndpoint: Hydrophobic material only Leakage (%)
A number alone suffices; assume %.

Req: # Hydrophobic material only Leakage (%) lookup, item O=C(OCc1ccccc1)c1ccccc1 [Benzyl benzoate]
Resp: 9.7

Req: CCCCO ?
Resp: 11.1

Req: Same lookup for N[C@@H](Cc1ccccc1)C(=O)O , please.
Resp: 10.7

Req: How about CCCCCCCCCC(=O)OCC(O)CO (stereo not shown) [Monocaprin, Glycerol monocaprate] ?
Resp: 8.1

Req: Also need CCCCCCCCCCCCO , thanks.
Resp: 9.1

Req: Query CCCOC(=O)c1ccc(O)cc1 [Propyl paraoxybenzoate, propyl paraoxybenzoate] next
Resp: 7.9

Req: Same again, this time with CCCCCCCCCCCCCCCC(=O)OCC(O)CO (stereo not shown) [Monopalmitin, Glycerol monopalmitate]
Resp: 8.1

Req: Another compound to check: CCCCCCCC/C=C\CCCCCCCC(=O)OCC(O)CO (stereo not shown) [Monoolein, Glycerol monooleate]
Resp: 8.3

Req: Also need CCCCCCCC(=O)OCC(COC(=O)CCCCCCC)OC(=O)CCCCCCC , thanks.
Resp: 9.0

Req: Subsequent entry: OC[C@H]1O[C@@H](O[C@H]2[C@H](O)[C@@H](O)C(O)O[C@@H]2CO)[C@H](O)[C@@H](O)[C@H]1O (stereo partly shown)
Resp: 8.9
